- Test system: A673/TR/shEF
- assay_info: cell viability (LOESS-normalised, relative to median of negative controls) (log2 ratio); higher = more viable cells (less compound effect), active = hit call of the paper (over 3 MAD below the median)
- measurement_context: 0.103 µM; library screen: screen3; EWS-FLI1 expression: high (no doxycycline); treatment time: 72 h
Among all 3,200 compounds or so, about 300 (9.4%) showed activity. The sample as a whole holds a higher share of actives than the screen did.
Please state which outcome applies, choosing from yes (1) (active), no (0) (inactive)

Nc1ccn([C@@H]2O[C@H](CO)[C@@H](O)C2(F)F)c(=O)n1: yes (1)

Query string: For this compound, state the assay outcome: CC1(C)S[C@@H]2[C@H](NC(=O)[C@H](N)c3ccc(O)cc3)C(=O)N2[C@H]1C(=O)O
Result string: no (0)

Query string: So what was the verdict on Cc1cc(Nc2cc(CN3CCOCC3)c3nc(C)c(Cc4ccc(Cl)cc4F)n3n2)n[nH]1 in this test?
Result string: no (0)

Query string: What did this assay record as the result for CN(C)C/C=C/C(=O)Nc1cc2c(Nc3ccc(F)c(Cl)c3)ncnc2cc1O[C@H]1CCOC1 ?
Result string: no (0)

Query string: Check the results log: what was the call for O=c1[nH]cc(F)c(=O)[nH]1 ?
Result string: no (0)

Query string: Hi, sorry to bother you, what did the test record for CCOc1cc2ncc(C#N)c(Nc3ccc(F)c(Cl)c3)c2cc1NC(=O)/C=C/CN(C)C ?
Result string: no (0)

Query string: Record request — test call for NC(=O)c1ncn([C@@H]2O[C@H](CO)[C@@H](O)[C@H]2O)n1
Result string: no (0)

Query string: // return assay outcome for Cc1nc(N)sc1-c1ccnc(Nc2ccc(N3CCOCC3)cc2)n1
Result string: no (0)

Query string: Per the records of this test, what outcome belongs to Cc1ccc(C(=O)Nc2ccc(CN3CCN(C)CC3)c(C(F)(F)F)c2)cc1C#Cc1cnc2cccnn12 ?
Result string: no (0)

Query string: Which outcome was assigned to CC(C)n1c(/C=C/C(O)CC(O)CC(=O)O)c(-c2ccc(F)cc2)c2ccccc21 (centres undefined) in this test?
Result string: no (0)

Query string: What call does the record list for C[C@@H]1C/C=C/C=C/C=C/C=C/[C@H](OC2O[C@H](C)[C@@H](O)[C@H](N)[C@@H]2O)C[C@@H]2O[C@](O)(C[C@@H](O)C[C@H]3O[C@@H]3/C=C/C(=O)O1)C[C@H](O)[C@H]2C(=O)O (some centres undefined) ?
Result string: no (0)

Query string: Please indicate how the test categorized CCCS(=O)(=O)Nc1ccc(F)c(C(=O)c2c[nH]c3ncc(-c4ccc(Cl)cc4)cc23)c1F .
Result string: no (0)

Query string: What was the test verdict on Nc1nc(Cl)nc2c1ncn2[C@@H]1O[C@H](CO)[C@@H](O)[C@@H]1F ?
Result string: no (0)

Query string: Per the assay record, what outcome was assigned to COc1cccc2c1C(=O)c1c(O)c3c(c(O)c1C2=O)C[C@@](O)(C(=O)CO)C[C@@H]3O[C@H]1C[C@H](N)[C@@H](O)[C@H](C)O1 ?
Result string: yes (1)

Query string: Call for entry Nc1ccn([C@H]2CC[C@@H](CO)O2)c(=O)n1 :
Result string: no (0)

Query string: Write down the call the test reported for this compound. Item: CN(C)CCCN1c2ccccc2Sc2ccc(Cl)cc21
Result string: no (0)

Query string: What was the test verdict on Nc1ncnc2nc[nH]c12 ?
Result string: no (0)
